Hello, the source for this data is patent US20230263822A1, in case you need it.

# Test name: Hematology assays in cynomolgus monkeys (Example 46)
# Type: in vivo
# Test conditions: Day 55
Strand notation (5' to 3'): a small letter for the sugar, then the base; units joined by * are phosphorothioate-linked, units joined directly phosphodiester-linked; [ ] holds rarer units or linkages, { } end groups; capitals alone tell only the bases. e = 2'-O-(2-methoxyethyl) (MOE); [5mC] = 5-methylcytosine; d = 2'-deoxy (DNA)
Metric: RBC count

>>> observed_value("ISIS 445531: 5-8-5 or 6-8-6 MOE microwalk gapmer (Table 44) (antisense eG*eG*e[5mC]*eA*eT*dT*dG*dG*dT*dG*d[5mC]*dA*d[5mC]*eA*eG*eT*eT*eT)")
"5.6e+06 µL⁻¹"
>>> observed_value("ISIS 416858: MOE gapmer, nucleobases 1275 to 1318 of SEQ ID NO: 1 (Table 8) (antisense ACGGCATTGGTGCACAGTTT; MOE gapmer, wing and gap sizes not given here)")
"5.3e+06 µL⁻¹"
>>> observed_value("ISIS 449711: 3-8-3, 4-8-4, 2-10-2, 3-10-3 or 4-10-4 MOE microwalk gapmer (Table 46) (antisense eA*e[5mC]*dA*dG*dT*dT*dT*d[5mC]*dT*dG*dG*d[5mC]*eA*eG)")
"5.3e+06 µL⁻¹"
>>> observed_value("ISIS 449707: 3-8-3, 4-8-4, 2-10-2, 3-10-3 or 4-10-4 MOE microwalk gapmer (Table 46) (antisense e[5mC]*eA*e[5mC]*eA*dG*dT*dT*dT*d[5mC]*dT*dG*dG*e[5mC]*eA*eG*eG)")
"5.8e+06 µL⁻¹"

###

The substances listed here are annotated with their reticulocytes.
# Test name: Hematology assays in cynomolgus monkeys (Example 45)
# Format: in vivo
# Test conditions: day 64
# Experimental: Groups, each consisting of two male and three female monkeys, were injected subcutaneously with ISIS 416838, ISIS 416850, ISIS 416858, ISIS 416864, or ISIS 417002 in escalating doses. […] Body weights were measured weekly. […]
Metric: reticulocytes (%)

>>> observed_value("ISIS 417002: MOE gapmer, nucleobases 1275 to 1318 of SEQ ID NO: 1 (Table 8) (antisense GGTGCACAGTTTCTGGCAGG; MOE gapmer, wing and gap sizes not given here)")
1.3
>>> observed_value("ISIS 416850: MOE gapmer, nucleobases 1275 to 1318 of SEQ ID NO: 1 (Table 8) (antisense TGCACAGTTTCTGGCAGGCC; MOE gapmer, wing and gap sizes not given here)")
1.7

###

# Test system: IL-1β, IL-6, IFN-γ, TNF-α, IL-8, MIP-1α, MCP-1, MIP-1β, RANTES
# Test name: Cytokine and chemokine assays in cynomolgus monkeys (Example 46)
# Type: in vivo
# Test conditions: day-14 (before start of treatment)
Strand notation (5' to 3'): a small letter for the sugar, then the base; units joined by * are phosphorothioate-linked, units joined directly phosphodiester-linked; [ ] holds rarer units or linkages, { } end groups; capitals alone tell only the bases. e = 2'-O-(2-methoxyethyl) (MOE); [5mC] = 5-methylcytosine; d = 2'-deoxy (DNA)
Metric: IFN-γ level (pg/mL)

>>> observed_value("ISIS 445522: 5-8-5 or 6-8-6 MOE microwalk gapmer (Table 44) (antisense eG*e[5mC]*eA*e[5mC]*eA*dG*dT*dT*dT*d[5mC]*dT*dG*dG*e[5mC]*eA*eG*eG*e[5mC])")
172
>>> observed_value("ISIS 416850: MOE gapmer, nucleobases 1275 to 1318 of SEQ ID NO: 1 (Table 8) (antisense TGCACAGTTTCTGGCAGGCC; MOE gapmer, wing and gap sizes not given here)")
115
>>> observed_value("ISIS 449708: 3-8-3, 4-8-4, 2-10-2, 3-10-3 or 4-10-4 MOE microwalk gapmer (Table 46) (antisense eA*e[5mC]*eA*dG*dT*dT*dT*d[5mC]*dT*dG*dG*e[5mC]*eA*eG)")
27
